- System: full-length beta-Catenin (Uniprot ID P35222) (Homo sapiens)
- Construct: 10 nM full-length beta-Catenin (Uniprot ID P35222)
- Sequence (P35222 1-781): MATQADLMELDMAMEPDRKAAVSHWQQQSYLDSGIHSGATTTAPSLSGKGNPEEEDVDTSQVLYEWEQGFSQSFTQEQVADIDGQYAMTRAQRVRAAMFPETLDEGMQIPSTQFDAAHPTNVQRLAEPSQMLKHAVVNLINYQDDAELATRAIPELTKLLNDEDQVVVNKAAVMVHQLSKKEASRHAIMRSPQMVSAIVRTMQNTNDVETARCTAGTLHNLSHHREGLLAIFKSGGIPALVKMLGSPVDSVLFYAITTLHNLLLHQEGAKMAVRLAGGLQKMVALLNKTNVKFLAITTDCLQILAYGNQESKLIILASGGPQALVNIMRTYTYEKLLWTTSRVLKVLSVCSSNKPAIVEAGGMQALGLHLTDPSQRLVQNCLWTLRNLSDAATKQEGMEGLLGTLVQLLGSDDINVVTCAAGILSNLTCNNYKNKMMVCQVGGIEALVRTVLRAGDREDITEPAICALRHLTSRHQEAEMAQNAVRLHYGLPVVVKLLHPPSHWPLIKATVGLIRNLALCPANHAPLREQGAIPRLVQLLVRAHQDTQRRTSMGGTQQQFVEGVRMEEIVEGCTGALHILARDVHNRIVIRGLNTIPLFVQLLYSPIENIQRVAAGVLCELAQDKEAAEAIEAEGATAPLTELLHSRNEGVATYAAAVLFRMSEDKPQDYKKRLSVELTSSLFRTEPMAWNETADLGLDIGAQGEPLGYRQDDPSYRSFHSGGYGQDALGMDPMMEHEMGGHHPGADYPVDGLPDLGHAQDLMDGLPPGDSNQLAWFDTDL
- Test Details: Fluorescence polarization IC50 (beta-catenin / 5FAM-TCF4 10-53 competition)
- Assay type: binding
- Condition Set: fluorescence polarization; read-out: beta-Catenin FP IC50
Experimental Endpoint: IC50 (nM)
// note: answer is a bare numeric in nM

{"Compound": "CC(=O)N1CCC[C@]12CCCCCCC1(CCCCCCCCOC(=O)N3CC[C@@](C(=O)N[C@@H](Cc4ccsc4)C(=O)N[C@@H](Cc4csc5ccccc45)C(=O)N[C@@H](CCC(N)=O)C(N)=O)(C3)NC(=O)[C@H](CC(C)C)NC(=O)[C@H](Cc3ccccc3)NC(=O)[C@H](C)NC(=O)[C@H](CCO)NC(=O)[C@H](CCC(N)=O)NC(=O)[C@H](CC(=O)O)NC1=O)NC(=O)[C@H](CC1CCCCC1)NC(=O)[C@H](CC(N)=O)NC2=O (some centres unmarked)", "Units Symbol": "nM", "IC50": 4860}

**Query** Returns the measured IC50 for the input compound. Input: CC(=O)N1CCC[C@]12CC=CCCCC1(CCCC=CCCCOC(=O)N3CC[C@@](C(=O)N[C@@H](Cc4ccsc4)C(=O)N[C@@H](Cc4csc5ccccc45)C(=O)N[C@@H](CCC(N)=O)C(N)=O)(C3)NC(=O)[C@H](CCO)NC(=O)[C@H](Cc3ccccc3)NC(=O)[C@H](C)NC(=O)[C@H](C)NC(=O)[C@H](Cc3c(F)c(F)c(F)c(F)c3F)NC(=O)[C@H](CC(=O)O)NC1=O)NC(=O)[C@H](CC(C)(C)C)NC(=O)[C@H](CC(=O)O)NC2=O (some centres unmarked)
**Result** 182
